The origin of these recorded values is ChEMBL document CHEMBL1201862.

GI50 values by entry
System: SW-620
Experiment: NCI tumour cell line growth inhibition, 48 h
Calls of active or inactive are those of the source. Cut-off read from the data, not from the text of the source: active = GI50 up to about 1.1 µM and inactive = higher.
assay-metric: GI50

molecule=N#CCSc1c(-c2ccccc2)c(=O)n(-c2ccccc2)c(=S)n1-c1ccccc1 assay_metric=GI50 observed_measurement="> 100 µM (inactive)"
molecule="CC(=O)NC(Cc1c[nH]cn1)C(=O)N1CCCC1C(N)=O (centres undefined)" assay_metric=GI50 observed_measurement="> 100 µM (inactive)"
molecule="O=C1CCCC[C@H]1C(O)CC1CC(=O)N(c2ccccc2)C(=O)C1 (some centres undefined)" assay_metric=GI50 observed_measurement="> 100 µM (inactive)"
molecule=O=S1(=O)CCCS(=O)(=O)C(c2ccccc2)=C1c1ccccc1 assay_metric=GI50 observed_measurement="27.5 µM (inactive)"
molecule="CC(C)(C)C1CC[C@H](O)[C@H]([C@@H](O)CC2CC(=O)N(c3ccccc3)C(=O)C2)C1 (some centres undefined)" assay_metric=GI50 observed_measurement="> 100 µM (inactive)"
molecule="CCOC(=O)CCC(NC(=O)c1ccc(Nc2nc3ccccc3nc2-c2cccs2)cc1)C(=O)OCC (centres undefined)" assay_metric=GI50 observed_measurement="33.8 µM (inactive)"
molecule=CC(=O)OC1(C)C=CC(=O)C=C1 assay_metric=GI50 observed_measurement="60.4 µM (inactive)"
molecule="CC1(Br)C(=O)NC(=O)N([C@H]2C[C@H](O)[C@@H](CO)O2)C1N=[N+]=[N-] (some centres undefined)" assay_metric=GI50 observed_measurement="> 100 µM (inactive)"
molecule=C[N+](C)(C)CC(=O)N/N=C/c1oc(-c2c(O)ccc3ccccc23)c(-c2c(O)ccc3ccccc23)c1[N+](=O)[O-] assay_metric=GI50 observed_measurement="21.5 µM (inactive)"

* * *

Test system: BT-549
Experiment: NCI tumour cell line growth inhibition, 48 h
The source made the active and inactive calls. Cut-off read from the data, not from the text of the source: active = GI50 up to about 1.1 µM and inactive = higher.
Labels: yes (active), no (inactive)

compound=O=C(CSCC(=O)N/N=C\c1cc(Br)cc(Br)c1O)N/N=C\c1cc(Br)cc(Br)c1O assigned_label=no
compound=O=C(c1cc(Br)ccc1O)c1cc(Br)ccc1O assigned_label=no
compound="COc1cccc2c1C(=O)c1c(O)c3c(c(O)c1C2=O)C[C@@](O)(C(=O)CO)C[C@@H]3OC1CC2C(OCN3CN2COC2C(C)OC(O[C@H]4C[C@](O)(C(=O)CO)Cc5c(O)c6c(c(O)c54)C(=O)c4c(OC)cccc4C6=O)CC23)C(C)O1 (some centres undefined)" assigned_label=yes
compound="CC(=O)O[C@H]1C(=O)[C@@]2(C)[C@H]([C@H](OC(=O)c3ccccc3)[C@]3(O)C[C@H](OC(=O)[C@H](OC(=O)OCCC(O)CO)[C@@H](NC(=O)c4ccccc4)c4ccccc4)C(C)=C1C3(C)C)[C@]1(OC(C)=O)CO[C@@H]1C[C@@H]2O (some centres undefined)" assigned_label=yes
compound=CCn1c(SCC(=O)NNC(=S)Nc2ccc(F)cc2)nc2ccccc2c1=O assigned_label=no
compound=O=c1oc2cc(/N=C/c3ccc4c(c3)OCO4)ccc2c2ccccc12 assigned_label=no
compound="CN(C)C(C1=C(O)C(c2ccccc2)N(c2ccccc2)C1=O)N1CCOCC1 (centres undefined)" assigned_label=no
compound=CCc1[nH]nc(C(N)=O)c1/N=N/N(C)C assigned_label=no
compound=CCNc1nc(N)c(C(=O)c2ccc(Cl)cc2)s1 assigned_label=no
compound="CC(Cc1ccc(O)cn1)(NC(=O)c1ccccc1)C(=O)O (centres undefined)" assigned_label=no
compound="COC(=O)C1CCC(=O)N1C(c1ccc(OC)cc1)c1ccc(OC)cc1 (centres undefined)" assigned_label=no
compound=Clc1ccc2nc3c(c(-c4ccccc4)nn3-c3ccccc3)c(-c3ccccc3)c2c1 assigned_label=no
compound=NC(=O)Nc1c(Cl)cc(S(N)(=O)=O)cc1Cl assigned_label=no
compound="CC1(C)Oc2ccc3c(=O)c4ccccc4oc3c2C1C(=O)O (centres undefined)" assigned_label=no
compound=CN(C)CCCOc1nc2c(c(=O)n(C)c(=O)n2C)n1C.SC1=NC=NC2=NC=NC12 assigned_label=no
compound=CCOC(=O)/C(=C\NC(C)(C)C)c1nc2ccccc2o1 assigned_label=no
compound=CC(C)(C)OC(=O)N1C(OP(=O)(Oc2ccccc2)Oc2ccccc2)=CSc2ccccc21 assigned_label=no
compound=Cc1nc2cccc([N+](=O)[O-])c2n1CCCN(C)C assigned_label=no
compound=COc1c(-c2nc3ccc(N4CCN(C)CC4)nc3[nH]2)cc(OC)c2[nH]c(COC(C)=O)nc12 assigned_label=no
compound=O=C(NNC(=O)c1ccccc1O)c1cccc(Br)c1 assigned_label=no
compound=COC(=O)c1ccc([N+](=O)[O-])c(O)c1 assigned_label=no
compound=CN(C)c1ccc(C(c2ccc(N(C)C)cc2)c2ccc([N+](=O)[O-])cc2)cc1 assigned_label=no
compound="C[N+]1([O-])C2CCC1CC(OC(=O)C(CO)c1ccccc1)C2 (centres undefined)" assigned_label=no
compound=O=C1C(Cl)=C(OCCCCl)C(=O)c2c(O)ccc(O)c21 assigned_label=no
compound=Cc1cc(/N=C/c2ccc(N(C)C)cc2)n(-c2ccccc2)n1 assigned_label=no
compound="COc1cc(COC(=O)N2CC=CC2C(=O)O)c([N+](=O)[O-])cc1OC (centres undefined)" assigned_label=no
compound=Nc1ccc(N(S(=O)(=O)c2ccccc2)S(=O)(=O)c2ccccc2)c(Cl)c1 assigned_label=no
compound=CCC(=O)NC(NNS(=O)(=O)c1ccc(C)cc1)(C(F)(F)F)C(F)(F)F assigned_label=no
compound=CCOCC(=O)N[C@H]1CCc2cc(OC)c(OC)c(OC)c2-c2ccc(SC)c(=O)cc21 assigned_label=yes
compound="O=C(Cc1ccccc1)N/N=C(/CCN1CCCC1)CC(c1ccccc1)c1c(O)c2ccccc2oc1=O (centres undefined)" assigned_label=no
compound=C/C(=N/S(=O)(=O)c1ccc(Cl)c(Cl)c1)OCC(C)(C)C assigned_label=no
compound=CC(C)N1[C@@H]2CCCC[C@H]2N(C(C)C)P1(=O)C(=O)/C=C/c1ccccc1 assigned_label=no
compound=N#Cc1cc(-c2nc3cc(F)ccc3s2)ccc1N assigned_label=no
compound=CN(C)c1ccc(/C=C(\NC(=O)c2ccccc2)C(=O)Nc2cccc(C(=O)NCCCO)c2)cc1 assigned_label=no
compound="O=C(Nc1ccccc1)OC1OC(COC(=O)c2ccccc2)C(OC(=O)c2ccccc2)C1OS(=O)(=O)c1ccc([N+](=O)[O-])cc1 (centres undefined)" assigned_label=no
compound=Cc1[nH]c(-c2ccccc2)c(-c2ccc(Cl)cc2)c1C(=O)ONC(=O)c1ccccc1 assigned_label=no
compound=CCC(=O)OCN1C(=O)C=CC1=O assigned_label=no
compound="CN(C)CC1CCC/C(=C\\c2ccc(Cl)c(Cl)c2)C1=O (centres undefined)" assigned_label=no
compound=Cc1nn(C)c2c1C(=O)N(C)CC(=O)N2C assigned_label=no
